Ref: patent US20230381281A1

In vitro activity compared to native peptide (%) vs GLP-1 values by entry
- tgt: human GLP-1 receptor (human, UniProt P43220 24-463)
- experimentSummary: cell-based or functional assay
Bridge positions count the residues as written; N and C are the ends. Square brackets hold non-standard residues; d marks the D form. Ends that are not written are not given here. * marks the point of attachment. Acetyl(2-(4-imidazolyl)) = O=C(Cc1c[nH]cn1)*; Aib = CC(C)(N)C(=O)O
measuredParameter: In vitro activity compared to native peptide (%) vs GLP-1

- binder: "H[Aib]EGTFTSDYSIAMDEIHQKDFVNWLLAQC (bridge 16-20) [Triple agonist of SEQ ID NO: 53]"
  readoutValue: 161
- binder: "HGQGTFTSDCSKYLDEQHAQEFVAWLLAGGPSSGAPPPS [Triple agonist of SEQ ID NO: 46]"
  readoutValue: 1.4
- binder: "{Acetyl(2-(4-imidazolyl))}-[Aib]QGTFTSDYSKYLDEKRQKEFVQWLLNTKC (bridge 15-19) [Triple agonist of SEQ ID NO: 88]"
  readoutValue: 9.6
- binder: "Y[Aib]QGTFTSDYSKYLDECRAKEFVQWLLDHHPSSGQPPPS (bridge 16-20) [Triple agonist of SEQ ID NO: 21]"
  readoutValue: 17.8
- binder: "Y[Aib]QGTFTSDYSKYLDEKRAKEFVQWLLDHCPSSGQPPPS (bridge 16-20) [Triple agonist of SEQ ID NO: 96]"
  readoutValue: 34.4
- binder: "H[Aib]QGTFTSDVSKYLDGQAAQEFVAWLLAGGGPSSGAPPPSC [Triple agonist of SEQ ID NO: 10]"
  readoutValue: 46
- binder: "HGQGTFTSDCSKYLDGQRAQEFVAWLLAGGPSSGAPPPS [Triple agonist of SEQ ID NO: 47]"
  readoutValue: 2.4
- binder: "Y[Aib]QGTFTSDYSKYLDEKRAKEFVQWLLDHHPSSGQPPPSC (bridge 16-20) [Triple agonist of SEQ ID NO: 42]"
  readoutValue: 33.9
- binder: "{Acetyl(2-(4-imidazolyl))}-[Aib]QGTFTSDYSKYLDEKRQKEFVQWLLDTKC (bridge 15-19) [Triple agonist of SEQ ID NO: 89]"
  readoutValue: 7.1
- binder: "Y[Aib]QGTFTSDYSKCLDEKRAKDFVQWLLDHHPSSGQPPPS (bridge 16-20) [Triple agonist of SEQ ID NO: 70]"
  readoutValue: 15.1
- binder: "{Acetyl(2-(4-imidazolyl))}-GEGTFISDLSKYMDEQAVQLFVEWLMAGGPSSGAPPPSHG [Triple agonist of SEQ ID NO: 12]"
  readoutValue: 0.4
- binder: "{Acetyl(2-(4-imidazolyl))}-[Aib]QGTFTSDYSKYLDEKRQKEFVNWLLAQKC (bridge 15-19) [Triple agonist of SEQ ID NO: 93]"
  readoutValue: 5.7
- binder: "H[Aib]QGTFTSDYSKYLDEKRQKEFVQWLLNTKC (bridge 16-20) [Triple agonist of SEQ ID NO: 58]"
  readoutValue: 39.1
- binder: "H[Aib]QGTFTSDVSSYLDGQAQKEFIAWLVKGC [Triple agonist of SEQ ID NO: 2]"
  readoutValue: 5.9
- binder: "H[Aib]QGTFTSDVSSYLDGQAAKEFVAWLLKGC [Triple agonist of SEQ ID NO: 6]"
  readoutValue: 17
- binder: "{Acetyl(2-(4-imidazolyl))}-[Aib]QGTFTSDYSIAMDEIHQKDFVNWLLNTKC (bridge 15-19) [Triple agonist of SEQ ID NO: 94]"
  readoutValue: 0.5
- binder: "Y[Aib]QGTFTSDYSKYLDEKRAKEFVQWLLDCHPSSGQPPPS (bridge 16-20) [Triple agonist of SEQ ID NO: 97]"
  readoutValue: 10.5
- binder: "H[Aib]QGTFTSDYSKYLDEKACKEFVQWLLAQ (bridge 16-20) [Triple agonist of SEQ ID NO: 31]"
  readoutValue: 135
- binder: "Y[Aib]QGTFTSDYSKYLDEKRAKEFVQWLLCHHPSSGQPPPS (bridge 16-20) [Triple agonist of SEQ ID NO: 95]"
  readoutValue: 2.1
- binder: "Y[Aib]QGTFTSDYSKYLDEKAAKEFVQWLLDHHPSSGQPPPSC (bridge 16-20) [Triple agonist of SEQ ID NO: 75]"
  readoutValue: 35.1
- binder: "H[Aib]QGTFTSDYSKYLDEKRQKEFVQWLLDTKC (bridge 16-20) [Triple agonist of SEQ ID NO: 78]"
  readoutValue: 51
- binder: "H[Aib]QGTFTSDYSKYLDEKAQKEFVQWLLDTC (bridge 16-20) [Triple agonist of SEQ ID NO: 30]"
  readoutValue: 142
